Attribution: paper PMC5540273

- System: p38-delta
- condition.description: concentration: 1 μM, replicates: in singlicate; n = 1;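 further: KINOMEscan kinase panel screen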
readout.kind: %Inh

Below are worked cases with known answers.
COCCNC(=O)c1ccc(-c2cc(C(=O)NC3CC3)cc(F)c2C)cc1 [GW868318] = 0%
COc1cc2c(cc1OC[C@@H](O)CO)ncc1c3ccc(C#N)cc3[nH]c21 = 0%
Cc1ccc(NC(=O)c2ccnc(N3CCN(C)CC3)c2)cc1-c1ccc(C(=O)NCC2CC2)cc1 [GW775604] = 10%

# input Using known records, supply %Inh for N#Cc1ccc(-c2cc(-c3c[nH]nc3-c3ccccn3)ccn2)cc1 [GW693028]
# output 22%

---

- Tested on: PRKD1
- condition.description: concentration: 1 μM, replicates: in singlicate; n = 1
readout.kind: %Inh (%)
Answers are plain numbers, in %.

Guide cases for %Inh, answers given:
COC(=O)Nc1nc2cc(Oc3ccc(NC(=O)Nc4cc(F)ccc4F)cc3)ccc2[nH]1.Cl = 0
Cl.Nc1ncnc2occ(-c3ccc(NC(=O)Nc4cc(C(F)(F)F)ccc4F)cc3)c12 = 0
Fc1ccc(-c2nn3c(OCC(F)(F)F)cccc3c2-c2ccncc2)cc1 = 27
CC(C)Oc1ccc2c(-c3ccnc(Nc4ccc(N5CCN(C)CC5)cc4)n3)cnn2n1 = 86

Hi team, please reply with %Inh for each item in this list.
1. N#Cc1c(N2CCOCC2)sc(-c2ccn[nH]2)c1-c1ccc(Cl)cc1
2. C[C@@H](Oc1cc(-n2cnc3ccc(NC(=O)NC(C)(C)C)cc32)sc1C(N)=O)c1ccccc1Cl
3. O=C(Nc1n[nH]c2cc(-c3cccc(F)c3)ccc12)C1CC1
4. Fc1ccc(-c2ncn(CCCN3CCOCC3)c2-c2cccnc2)cc1
5. NS(=O)(=O)c1cccc(-c2ccc3nccc(-c4cccc(S(N)(=O)=O)c4)c3c2)c1
6. O=C(c1ccc(-c2cc(-c3c[nH]nc3-c3ccccn3)ccn2)cc1)N1CCOCC1
7. COc1cc2c(cc1OC[C@@H](O)CO)ncc1c3ccc(C#N)cc3[nH]c21

# output
1: 0; 2: 2; 3: 0; 4: 0; 5: 0; 6: 0; 7: 0

For each entry beneath this line, provide reported %Inh.
1. Cn1cc(-c2ccc3c(c2)CCN3C(=O)Cc2ccccc2Cl)c2c(N)ncnc21
2. Cc1cccc(-c2nc(Nc3ccc4ncsc4c3)c3ccccc3n2)n1
3. CCCCCc1nc2c(N)ncnc2n1CCCCC
4. O=C(NCCCN1CCOCC1)c1cccc(Nc2nccc(Nc3ccc(Oc4ccccc4)cc3)n2)c1
5. [2H]C([2H])(c1cccc(C(F)(F)F)c1C)n1ccn2c(=O)nc(N3CCOCC3)cc12
6. COc1ccc(Nc2nccc(N3CCC(NC(=O)Nc4cccc(C(C)=O)c4)C3)n2)cc1 (stereo not shown)

# output
0
98.7
0
13
17
0

Answer for every listed entry: what is its %Inh? The entries follow.
1. Cc1nnc(-c2ccc3ncc(-c4ccc(S(C)=O)cc4)n3c2)o1 (stereo not shown)
2. Nc1nccc(-c2c(-c3ccc(F)cc3)ncn2C2CCN(CC(F)(F)F)CC2)n1
3. CN(C(=O)c1ccc(-c2cc(-c3c[nH]nc3-c3ccccn3)ccn2)cc1)C1CCOCC1
4. Cl.Oc1cccc(Nc2ccnc3cc(-c4ccncc4)ccc23)c1
5. Cc1cn2c(=O)cc(N3CCOCC3)nc2n1Cc1cccc(Cl)c1Cl
6. Fc1ccc(-c2ncn(CCCN3CCOCC3)c2-c2ccccn2)cc1
7. Cc1cccc(-c2nc(-c3ccc(S(C)(=O)=O)cc3)sc2-c2ccncc2)c1
8. Cn1ccc2ncnc(Oc3ccc(NC(=O)Nc4ccncc4)c(Cl)c3)c21

# output
1. 0
2. 0
3. 10
4. 25
5. 0
6. 0
7. 0
8. 14

---

Consider the following compounds; for each one, report its %Inh.
- Test system: YSK4
- Construct: gene MAP3K19
- condition.description: concentration: 1 μM, replicates: in singlicate; n = 1
Give bare numbers, in %.

Take a look at these entries with their results.
Cc1cccc(-c2nc(Nc3ccc4ncsc4c3)c3ccccc3n2)n1 = 11
Cc1ccc(NC(=O)c2ccnc(N3CCN(C)CC3)c2)cc1-c1ccc(C(=O)NCC2CC2)cc1 = 0
COc1ccc(S(=O)(=O)NC2CCN(c3cc(C)nc(Nc4cccc(C#N)c4)n3)CC2)cc1.O=C(O)C(F)(F)F = 0
Cc1cccc(-c2nc(-c3ccc(S(C)(=O)=O)cc3)sc2-c2ccncc2)c1 = 9
O=C(Nc1cccc(-c2nn3ncccc3c2-c2ccnc(Nc3cccc(C(F)(F)F)c3)n2)c1)c1c(F)cccc1F = 33

Lab note: each compound below needs its %Inh filled in.
1. O=C(NCCNc1ccnc(Nc2ccc(F)cc2)n1)Nc1ccccc1F
2. COc1cc2c(cc1OCCN1CCN(C)CC1)ncc1c3ccc(C#N)cc3[nH]c21

# output
[26, 89]

---

- Test system: PAK2
- condition.description: concentration: 1 μM, replicates: in singlicate; n = 1
Assign class by %Inh: not lower than 10% means Fulfilled; lower than 10% means Not fulfilled.

Worked cases, answers included:
O=C(NCCNc1ccnc(Nc2ccc(F)cc2)n1)c1cc2ccccc2s1 = Not fulfilled
COc1cc(Nc2nccc(N3CCC(NC(=O)c4cccc(NC(C)=O)c4)C3)n2)cc(OC)c1OC (centres unmarked) = Fulfilled
O=C(c1ccc(-c2cc(-c3c[nH]nc3-c3ccccn3)ccn2)cc1)N1CCOCC1 = Not fulfilled

# input Decide: %Inh of c1ccc(-c2n[nH]cc2-c2ccnc3ccccc23)nc1 >= 10%?
# output Fulfilled

# input Form field: %Inh at least 10%? Entry: O=C(NCCCN1CCOCC1)c1cccc(Nc2nccc(Nc3ccc(Oc4ccccc4)cc3)n2)c1
# output Fulfilled

# input Could you tell me if the measured %Inh of Cc1cccc(-c2nc(-c3ccc(S(C)(=O)=O)cc3)sc2-c2ccncc2)c1 reaches 10% or more?
# output Not fulfilled

# input Answer whether %Inh of CCc1nc(-c2cccc(C)c2)c(-c2ccnc(NCc3ccccc3)c2)s1 is greater than or equal to 10%.
# output Fulfilled

# input Is %Inh at least 10%? Consider Nc1nc(-c2ccc3c(N)n[nH]c3c2)cc(N2CCCC2)n1
# output Fulfilled

---

- Test system: TIE1
- condition.description: concentration: 1 μM, replicates: in singlicate; n = 1
Please go through the items and note down their %Inh.
Numbers only, in %.

NS(=O)(=O)c1cccc(-c2ccc3ncc(N4CCOCC4)nc3c2)c1 [GSK1535721] = 0
O=C(Nc1cccc(-c2nn3ncccc3c2-c2ccnc(Nc3cccc(C(F)(F)F)c3)n2)c1)c1c(F)cccc1F [GSK299495] = 10
O=C(NCCCN1CCOCC1)c1cccc(Nc2nccc(Nc3ccc(Oc4ccccc4)cc3)n2)c1 [GW663929] = 11
O=C(Nc1n[nH]c2cc(-c3cccc(F)c3)ccc12)C1CC1 [SB-735464] = 0

# input Check the records and state %Inh for Cc1nnc(-c2ccc(C)c(-c3ccc(C(=O)Nc4ccc(NS(C)(=O)=O)cc4)cc3)c2)o1 [GW702865]
# output 0

---

- Test system: FLT1
- condition.description: concentration: 1 μM, replicates: in singlicate; n = 1
param class (str): category from %Inh; see ranges 0 = under 4%, 1 = from 4% up to 20%, 2 = 20% and over

Worked cases, answers included:
Cn1ccc2ncnc(Oc3ccc(NC(=O)Nc4ccncc4)c(Cl)c3)c21 = 0
COc1ccc(Nc2ncc(C#N)c(Nc3ccccc3C(N)=O)n2)cc1N1CCN(C)CC1.Cl = 2
NCC(NC(=O)c1cc(-c2cn[nH]c2)c(-c2ccnc3[nH]ccc23)s1)c1ccccc1.O=C(O)C(F)(F)F.O=C(O)C(F)(F)F (stereo not shown) = 0
CC(C)(C)n1cnc2c(N)ncnc21 = 1
O=c1cc(N2CCOCC2)nc2n(Cc3cccc(C(F)(F)F)c3)ccn12 = 1

# input Classify this compound: Cl.Oc1cccc(Nc2ccnc3cc(-c4ccncc4)ccc23)c1
# output 2

# input GET /class?item= O=C(NOCC1CC1)c1ccc(F)c(F)c1Nc1ccc(I)cc1Cl
# output 1

# input Hey, which category is N#Cc1ccc(-c2cc(-c3c[nH]nc3-c3ccccn3)ccn2)cc1 in, do you know?
# output 0

# input Bin? Cc1cccc(-c2nc(Nc3ccc4ncsc4c3)c3ccccc3n2)n1
# output 0

# input Dear colleague, I would appreciate it if you could identify the bin for CCc1ccnc(/C=C/c2n[nH]c3cc(Sc4ccccc4C(=O)NC)ccc23)c1 and reply at your convenience.
# output 2

# input // return the class label for CN(C(=O)c1ccc(-c2cc(-c3c[nH]nc3-c3ccccn3)ccn2)cc1)C1CCOCC1
# output 2

# input Just checking, what class would you give NS(=O)(=O)CCc1cccc(Nc2nccc(-c3c(-c4cccc(NC(=O)c5c(F)cccc5F)c4)nn4ccccc34)n2)c1 here?
# output 2

# input Please report the category associated with O=C(c1ccc(-c2cc(-c3c[nH]nc3-c3ccccn3)ccn2)cc1)N1CCOCC1 , nothing else.
# output 0

# input Please indicate the class for COCCNC(=O)c1ccc(-c2cc(C(=O)NC3CC3)cc(F)c2C)cc1 based on its %Inh.
# output 1

# input Where would CCn1cnc2c(N)ncnc21 land among the classes by reported %Inh?
# output 1
